protocol-details: yeast display, Sf9 membrane polyspecificity reagent, FACS + sequencing; frameworks hold sequencing errors
endpoint-name: polyreactivity (PSR sort gate)

A selection of reference data follows.
biopolymer-sequence: QVQLVESGGGLVQAGGSLRLSCAASGRIFSYYAMGWYRQAPGKERELVAVISRRGDNTYYADSVKGRFTISRDNAKNTVYLQMNSLKPEDTEVFYCAAYSWYAKDFDYWGQGTQVTVSS
polyreactivity (PSR sort gate): high polyreactivity
--
biopolymer-sequence: QVQLVESGGGLVQAGGRLRLSCAASGSTFKRYVMRLYRQAPGKERELVAAITWSGTRTYYADSVKGRFTISRDNAKNTVYLQMNSLKPEDTAVYYSAAVADRYPYSGYNYYSWGQGTQVTVSS
polyreactivity (PSR sort gate): high polyreactivity
--
biopolymer-sequence: QVQLVESGGGLFQSGGSLRLSCAASGITFRYYAMGWYRQAPGKERELVAAISSGGSTNYADSVKGRFTISRDNAKNSVYLQINSLKPEDTAVYYCYRRVYSRRYYGYYYWGQGTQVTVSS
polyreactivity (PSR sort gate): high polyreactivity
--
biopolymer-sequence: QVQLVESGGGLVQAGGSLRLSCAASGSTFLRNVMGWYRQAPGKERELVAAISSRGGSTHYADSVKGRFTISRDNAKNTVYLQMNSLKPEDTAVYYCNSERTAAQYVRAAYDYWGQGTQVTVSS
polyreactivity (PSR sort gate): low polyreactivity
--
biopolymer-sequence: QVQLVESGGGLVQAGGSLRLSCAASGSTFKQYAMGLYRQAPGTERELVAVITWRGGRTYYADSVKGRFTISRDYAKNTVYLQMNSLKPEDTAVYYCAADYFSFIPGYDYWGQGTQVTVSS
polyreactivity (PSR sort gate): high polyreactivity

Please report polyreactivity (PSR sort gate) for the following sequence: QVQLVESGGGLVQAGGSLRLSCAASGRIFDNNAMGWYRQAPGKERELVAAIDWRGGSTDYADSVKGRFTISRDNAKNNVYLHMNSLKQEDTAVYYCVAGHVRYWHGYSYDYWGQGTQVTVSS
low polyreactivity

Please report polyreactivity (PSR sort gate) for the following sequence: QVQLVESGGGLVQAGGSLRLSCAASGFTFDQYAMGWYRQAPGKEREFVAAINQSTGSTYYADSVKGRFTISRDNAKNTVYLQMISLKPEDTAVYYCAAEESSTSSEYDYWGQGTQVTVSS
low polyreactivity

====

protocol-details: yeast display, Sf9 membrane polyspecificity reagent, FACS + sequencing; frameworks hold sequencing errors
endpoint-name: polyreactivity (PSR sort gate)

A selection of reference data follows.
biopolymer-sequence: QVQLVESGGGLVQAGGSLRLSCAASGRIFRYNAMGWYRQAPGKERELVATISKSGGSTYYADSVKGRFTISRDNANYTVYLQMNSLKPEDTAVYYCAASYHPWLADYGYWGQGTQVSVSS
polyreactivity (PSR sort gate): low polyreactivity

biopolymer-sequence: QVQLVESVGGLVQAGGSLRLSCAASGFTFANYAMGWYRQAPGKERELVAAITWSGGRTYYADSVKGRFTISRDNAKNTVYLQMNSLKQEYTAVYYCAAGLGTLYGYWGQGTQVTVSS
polyreactivity (PSR sort gate): high polyreactivity

biopolymer-sequence: QVQLVESGGGLVQAGGSLRFSCAASGSTFTRYAMGWYRQAPGKERELVAAISWSGGITYYADSVNGRFTISRDNAKNTVYLQMNSLKPEDTAVYYCAAKRRYTRGGYGVDYWGQGTQVTVSS
polyreactivity (PSR sort gate): high polyreactivity

biopolymer-sequence: QVQLVESGGRLVQAGGSLRLICAASGGIFGFNAMGWYRQAPGKERELVADISDGVRTNYADSVKWRFTISRDNAKNTVFLQMNSLKPEDTAVNYCATDGVYYVDGSWTLGYWGLGTQVTVSS
polyreactivity (PSR sort gate): low polyreactivity

Could you now look at the following sequence, please?
Please report polyreactivity (PSR sort gate) for the following sequence: QVQLVESGVGLVQAGGSLRLSCAASGFTFAFYAMGWYRQAPGKERELVAAISRRGGSTTYADSVKGRFTISRDNAKYTVYLQMNSLKPEDTAVYYCNAVSTRNPGPDYYYWGQGTQVTVSS
high polyreactivity

====

protocol-details: yeast display, Sf9 membrane polyspecificity reagent, FACS + sequencing; frameworks hold sequencing errors
endpoint-name: polyreactivity (PSR sort gate)

A selection of reference data follows.
biopolymer-sequence: QLQLVESGRGLVQAGGSLRLSCAASGSTFQLYTMGLYRQAPGKERELVAAITGSGGSTYYADSVKGRFTISRDNAKNTVYLQMNSLKPEDTAVYYCAAKSSFRIAWEYYYWGQGTQGTVSS
endpoint-name: polyreactivity (PSR sort gate)
result: high polyreactivity

biopolymer-sequence: QVQLVESGGGLVQAGGSLRLSCAASGFIFRYYAMGWYRQEPGKERELVAAIDYSGGSTNYADSVKGRFTISRDNAKNTVYLQMNSLKPEDTAVYYCNAEYTWHRGYDYWGQGTQVTVSS
endpoint-name: polyreactivity (PSR sort gate)
result: low polyreactivity

biopolymer-sequence: QVQLVESGGGLVQAGGSLRLSCAASGRIFYVYAMGWYRQAPGKERELVAAITSGGRTDYADSVKGRFTISRDNAKNTVYLQMNSLKPEDTAVYYCAVRGSYRGWYDYWGQGTQVTVSS
endpoint-name: polyreactivity (PSR sort gate)
result: high polyreactivity

biopolymer-sequence: QVQLVESGGGLVQAGGSHRLSCAAYGSIFATNAMGWYRQAPGKERELVASISYSVSRTYYADSVKGRFTISRDNSMNTVYLQMNSMKPEDTAFYYSAVRQVNWFGIGYEDDYWGQGTQVTVSS
endpoint-name: polyreactivity (PSR sort gate)
result: low polyreactivity

biopolymer-sequence: QVQLVESGGGLVQAGGSLRLSCAASGRTFYYYAMGWYRQAPCKERELVSAITTDGGNTYYADSVKGRFTISRDNAKNTVYLQMNSLKPEDTAVYYCATDGYEYTDYGSSGYDYWGQGTQVTVSS
endpoint-name: polyreactivity (PSR sort gate)
result: low polyreactivity

Please report polyreactivity (PSR sort gate) for the following sequence: QVQLVESGGGLVQAGGSLRLSCAASGITFYRYAMGWSRQAPGKERELVAAIRRAGSTYYADSVKGRFTISRDIAKNSVYLQMNSLKPEDTAVYYCNARYGIGMNYWGQGTHVTVSS
high polyreactivity

Please report polyreactivity (PSR sort gate) for the following sequence: QVQLVESGGGLVQAGGSLRLSCAASGFIFSKYAMGWYRQAPGKERELVAAITRSGGRTYYADSVKGRFTISRDNAKNTVYLQMNSLKPEDSAVYYCAASWLYFGRDYWGQGTQVPVSS
high polyreactivity

Please report polyreactivity (PSR sort gate) for the following sequence: QVQLVESGGGLVQAGGSLRLSCADSGRTFRIYAMGWYRQAPGKERELVARITKRAGSTYYADSVKGRFTISRDNAKNTVYLQMNSLKPEDTAVYYCAATHYQWRGRYGYWRQGTQVTVSS
high polyreactivity

Please report polyreactivity (PSR sort gate) for the following sequence: QVQLVESGAGLVQAGGSLRISCAASGFTFQKNAMGWYRQSPGKERELVAAISSSGGSTYYADSVKGRFTISRDNAKNTVYLQMNSMKPDDTAVYYCNAVTLANKYNDYGYWGQGTQVTVSS
high polyreactivity

Please report polyreactivity (PSR sort gate) for the following sequence: QVQLVESGGGLVQAGGSLRLSCAASGRIFGSYAMGSYRQAPGKERELVAAINWRGGSTFYADSVKGRFTISRDNAKNTVYLQMNSLKPEDTAVYYCARRGYRQSGDYWGQGTQVTVSS
low polyreactivity

Please report polyreactivity (PSR sort gate) for the following sequence: QVKLVESGGGLVKAGASLRLSCAASGSTLQHYAMGWYRQAPGKERELVAAINRSGDRTYYADSVKGRFTISRDNAKTTVYLQMNSLKPEDTPVDYCAAYDDYRAPVRYEYWGQGTQVTVSS
high polyreactivity

====

protocol-details: yeast display, Sf9 membrane polyspecificity reagent, FACS + sequencing; frameworks hold sequencing errors
endpoint-name: polyreactivity (PSR sort gate)

A selection of reference data follows.
biopolymer-sequence: QVQLVESGGGLVQAGGSLRLSCAASGYIFDAYAMGWYRQAPGKERELVAAIDIGGSTYYADSVKGRFTISRDNAKNTVYLQMNSLKPEDTAVYYCAEWFYFDQWDYAREYWGQGTQVTVSS
polyreactivity (PSR sort gate): low polyreactivity

biopolymer-sequence: QVQLVESGGGLVQAGGSLRLSCAASGFTFVINDMGWNRQAPGKERELVADITSGGDTYYADSVKGRFTISRDNAKNTVDLQMNSLKPEDTAVYYCAADIYPDWIYLLYGYWGQGTQVTVSS
polyreactivity (PSR sort gate): low polyreactivity

biopolymer-sequence: QVQLVESGGGLVQAGGSLRLSCAASGLIFRVYAMGWYRQAPGKERELVATITRGGRTYYADSVKGRFTISRDNAKNTVYLQMNSLKPEDTAVYYCAVLSVRRSYNYWGQGTQVTVSS
polyreactivity (PSR sort gate): high polyreactivity

biopolymer-sequence: QVQLVESGGGLVQAGGSLRLSCAASGSIFGNAMGWYRQAPGKEREVVAAISSSGSSTYYADSVKGRFTISRDNAKNTVYFQMNSLKPEDTAVYYCAKRRRSAAPKYDYWGQGTQVTVSS
polyreactivity (PSR sort gate): high polyreactivity

biopolymer-sequence: QVQVVESGGGLVQAGGSLRLSCAASGFIFLRYDMGWYRQAPGKERELVAAINGNGGSTYYADSVKGRFTISRDNAKNTFYLQMNSLKPEDTAVYYCNARRRTYARNYGYWGHGTQVTVSS
polyreactivity (PSR sort gate): high polyreactivity

biopolymer-sequence: QVQLVEAGGGLVQAGGSLRLSCASSGSIITVYDMGWYRQPPGKERELVATITGSDGRTDYADSVKGRFTISRDNAKNTVYLQMNSLKPEDTAVYYCAAHVFQWKNRQSLLFDQGYYWGQGTQVTVSS
polyreactivity (PSR sort gate): low polyreactivity

Please report polyreactivity (PSR sort gate) for the following sequence: QVQLQESGGGLVQAGGSLRLSCAASGSISGPHLMGWYRQAPGQEREFVAAINVGANTYYADNVKGRFTISRDNAKNTLYLQMNSLKPEDTAVYYCAAVYYGDIGHEYWGQGTQVTVSC
low polyreactivity
